Listed below are molecules with pIC50 for Aminopeptidase N (Sus scrofa), each taken from published literature.
# tested_target: Aminopeptidase N (Sus scrofa)
# Sequence (P15145 whole entry): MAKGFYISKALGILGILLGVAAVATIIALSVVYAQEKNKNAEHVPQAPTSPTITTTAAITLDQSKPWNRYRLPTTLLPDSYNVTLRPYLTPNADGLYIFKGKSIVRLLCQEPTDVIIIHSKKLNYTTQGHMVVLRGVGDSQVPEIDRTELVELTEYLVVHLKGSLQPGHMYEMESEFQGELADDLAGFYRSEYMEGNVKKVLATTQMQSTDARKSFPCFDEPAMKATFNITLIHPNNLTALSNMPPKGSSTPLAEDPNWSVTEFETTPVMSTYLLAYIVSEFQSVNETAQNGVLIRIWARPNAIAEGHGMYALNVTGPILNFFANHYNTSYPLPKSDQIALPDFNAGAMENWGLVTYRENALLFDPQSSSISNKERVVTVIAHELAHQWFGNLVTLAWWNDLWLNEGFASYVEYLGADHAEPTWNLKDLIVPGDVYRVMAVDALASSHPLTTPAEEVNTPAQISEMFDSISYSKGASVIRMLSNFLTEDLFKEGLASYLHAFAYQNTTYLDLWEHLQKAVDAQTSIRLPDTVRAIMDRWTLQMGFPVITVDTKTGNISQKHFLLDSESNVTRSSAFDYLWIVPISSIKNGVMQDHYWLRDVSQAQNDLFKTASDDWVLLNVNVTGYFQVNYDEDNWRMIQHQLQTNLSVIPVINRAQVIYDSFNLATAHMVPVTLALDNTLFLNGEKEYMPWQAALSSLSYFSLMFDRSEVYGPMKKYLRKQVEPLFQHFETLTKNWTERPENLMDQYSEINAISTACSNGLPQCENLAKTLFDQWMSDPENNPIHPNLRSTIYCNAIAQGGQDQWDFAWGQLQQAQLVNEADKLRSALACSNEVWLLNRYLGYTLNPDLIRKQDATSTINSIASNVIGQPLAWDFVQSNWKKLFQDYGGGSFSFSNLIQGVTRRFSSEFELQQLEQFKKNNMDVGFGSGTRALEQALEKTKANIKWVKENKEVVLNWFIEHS
pIC50: −log10 of the molar value.
Label scheme for pIC50: lower than 4 is no, 4 and above is yes.

| chem_smiles | label |
| --- | --- |
| CCCNC(=O)C[C@@H](NC(=O)/C=C/c1ccccc1)C(=O)NO | yes |
| COc1cc(C(=O)N[C@H](CCC(=O)O)C(=O)Nc2ccc(Cl)cc2)cc(OC)c1OC | yes |
| Cc1ccc(CNC(=O)N[C@@H](CC(C)C)C(=O)NO)cc1C | yes |
| CC(=O)NNC(=O)Cn1c(=O)c(C)nc2ccccc21 | no |
| N[C@@H](Cc1ccccc1)C(=O)N[C@H]1CCC(=O)N(CC(=O)Nc2cccc(Cl)c2)C1=O | yes |
| COc1ccc(-c2nnc(NC(=O)[C@@H](C)NC(=O)/C=C/c3ccc(O)cc3)s2)cc1 | yes |
